Tested on: M. tuberculosis Beijing
assayOverview: microbe, parasite or virus in culture
Type: cell-based
conditionDescription: Mycobacterium tuberculosis
parameter: MIC (µM)

compound	targetUnderTest	comparator	measuredValue
COc1ccc(/C=C/C(=O)c2ccc(OC)c(S(=O)(=O)NNC(=O)c3ccncc3)c2)cc1 [Compound 19d]	M. tuberculosis Beijing	=	21
COc1cc(OC)c(S(=O)(=O)NNC(=O)c2ccncc2)cc1C(=O)C=Cc1ccccc1 [Compound 20a]	M. tuberculosis Beijing	<	11
COc1cc(OC)c(S(N)(=O)=O)cc1C(=O)/C=C/c1ccc2c(c1)OCO2 [Compound 17f]	M. tuberculosis Beijing	>	2
COc1cc(OC)c(S(=O)(=O)NNC(=O)c2ccncc2)cc1C(=O)/C=C/c1ccc2c(c1)OCO2 [Compound 20f]	M. tuberculosis Beijing	=	20
COc1cc(OC)c(S(=O)(=O)NNC(=O)c2ccncc2)cc1C(=O)/C=C/c1cc(OC)c(OC)c(OC)c1 [Compound 20e]	M. tuberculosis Beijing	<	9
COc1ccc(/C=C/C(=O)c2cc(S(=O)(=O)NNC(=O)c3ccncc3)c(OC)cc2OC)cc1 [Compound 20d]	M. tuberculosis Beijing	>	20
COc1cc(OC)c(S(N)(=O)=O)cc1C(=O)C=Cc1ccccc1 [Compound 17a]	M. tuberculosis Beijing	=	29
C[C@H]1COc2c(N3CCN(C)CC3)c(F)cc3c(=O)c(C(=O)O)cn1c23 [Levofloxacin, levofloxacin, reference compound]	M. tuberculosis Beijing	=	2.8
COc1ccc(C(=O)C=Cc2ccccc2)cc1S(=O)(=O)NNC(=O)c1ccncc1 [Compound 19a]	M. tuberculosis Beijing	=	23

* * *

System: M. tuberculosis ATCC 35838
assayOverview: microbe, parasite or virus in culture
Format: cell-based, Mycobacterium tuberculosis
conditionDescription: Mycobacterium tuberculosis, ATCC35838, f. M. tuberculosis ATCC 35838 (rifampicin-resistant)
# maps each entry to its MIC

molecule	comparator	MIC / µM
COc1cc(OC)c(S(=O)(=O)NNC(=O)c2ccncc2)cc1C(=O)C=Cc1ccccc1 [Compound 20a]	<	12
COc1ccc(/C=C/C(=O)c2cc(S(=O)(=O)NNC(=O)c3ccncc3)c(OC)cc2OC)cc1 [Compound 20d]	=	20
COc1ccc(C(=O)C=Cc2ccccc2)cc1S(=O)(=O)NNC(=O)c1ccncc1 [Compound 19a]	<	12
COc1cc(OC)c(S(N)(=O)=O)cc1C(=O)C=Cc1ccccc1 [Compound 17a]	=	29
COc1cc(OC)c(S(=O)(=O)NNC(=O)c2ccncc2)cc1C(=O)/C=C/c1cc(OC)c(OC)c(OC)c1 [Compound 20e]	<	12
COc1ccc(/C=C/C(=O)c2ccc(OC)c(S(=O)(=O)NNC(=O)c3ccncc3)c2)cc1 [Compound 19d]	=	21
COc1cc(OC)c(S(=O)(=O)NNC(=O)c2ccncc2)cc1C(=O)/C=C/c1ccc2c(c1)OCO2 [Compound 20f]	<	12
COc1cc(OC)c(S(N)(=O)=O)cc1C(=O)/C=C/c1ccc2c(c1)OCO2 [Compound 17f]	>	25
C[C@H]1COc2c(N3CCN(C)CC3)c(F)cc3c(=O)c(C(=O)O)cn1c23 [Levofloxacin, levofloxacin, reference compound]	=	2.8

* * *

Tested on: M. tuberculosis Haarlem
assayOverview: microbe, parasite or virus in culture
Format: cell-based
conditionDescription: Mycobacterium tuberculosis
parameter: MIC

compound	measuredValue
COc1cc(OC)c(S(=O)(=O)NNC(=O)c2ccncc2)cc1C(=O)/C=C/c1ccc2c(c1)OCO2 [Compound 20f]	> 20 µM
COc1cc(OC)c(S(=O)(=O)NNC(=O)c2ccncc2)cc1C(=O)C=Cc1ccccc1 [Compound 20a]	> 21 µM
COc1cc(OC)c(S(=O)(=O)NNC(=O)c2ccncc2)cc1C(=O)/C=C/c1cc(OC)c(OC)c(OC)c1 [Compound 20e]	> 18 µM
COc1cc(OC)c(S(N)(=O)=O)cc1C(=O)/C=C/c1ccc2c(c1)OCO2 [Compound 17f]	> 2 µM
C[C@H]1COc2c(N3CCN(C)CC3)c(F)cc3c(=O)c(C(=O)O)cn1c23 [Levofloxacin, levofloxacin, reference compound]	2.8 µM
COc1ccc(/C=C/C(=O)c2ccc(OC)c(S(=O)(=O)NNC(=O)c3ccncc3)c2)cc1 [Compound 19d]	> 21 µM
COc1ccc(/C=C/C(=O)c2cc(S(=O)(=O)NNC(=O)c3ccncc3)c(OC)cc2OC)cc1 [Compound 20d]	> 20 µM
COc1cc(OC)c(S(N)(=O)=O)cc1C(=O)C=Cc1ccccc1 [Compound 17a]	> 29 µM
COc1ccc(C(=O)C=Cc2ccccc2)cc1S(=O)(=O)NNC(=O)c1ccncc1 [Compound 19a]	> 23 µM
